molecular target: HLA-B*07:02; assay: IEDB peptide-MHC binding, purified MHC/direct/fluorescence; filed as Kd, often an IC50 or EC50 that approximates it; bounds were set here for any values at or beyond the usual limits of such assays; settings: source organism: Coxiella burnetii
endpoint_name: Kd

What is its Kd for HLA-B*07:02? Entry: YMHGSIHEV ≥ 20 µM

* * *

target: HLA-B*58:01; assay: IEDB peptide-MHC binding, purified MHC/competitive/radioactivity; filed as Kd, often an IC50 or EC50 that approximates it; bounds were set here for any values at or beyond the usual limits of such assays; settings: source organism: Dengue virus 2 Jamaica/1409/1983
For each record, write down the corresponding Kd.
Numbers only, in nM.

// below: answered sequences
record_sequence=RVLNLVENW endpoint_name=Kd result_units=nM recorded_measurement=1.34
record_sequence=NASGNIVSSV endpoint_name=Kd result_units=nM recorded_measurement=112
record_sequence=ILIGVIITW endpoint_name=Kd result_units=nM recorded_measurement=1530

Please report Kd for every entry that follows.
1. LTSKELMMAT
2. IGLTSRATW
3. KGKRIEPSW

1130
6.11
11.2

* * *

target: HLA-A*03:01; assay: IEDB peptide-MHC binding, purified MHC/competitive/radioactivity; filed as Kd, often an IC50 or EC50 that approximates it; bounds were set here for any values at or beyond the usual limits of such assays; details: source organism: Lassa virus Josiah
Would you kindly list pKd for each of these sequences?
Numbers only, as −log10 of the molar value.

record_sequence=LTYSQLMTLK target_of_assay=HLA-A*03:01 endpoint_name=pKd recorded_measurement=7.53

# context switch: different sequence, same pKd
# get_value(readout='pKd', item= VTFLLLCGR ) 5.51

* * *

biological target: HLA-A*24:02; test: IEDB peptide-MHC binding, purified MHC/competitive/radioactivity; filed as Kd, often an IC50 or EC50 that approximates it; bounds were set here for any values at or beyond the usual limits of such assays; details: source organism: Mammarenavirus caliense
endpoint_name: Kd (µM)
Give bare numbers, in µM.

Recorded Kd for YQPDTGNYI , please? 5.26

* * *

biological target: HLA-A*30:01; experiment: IEDB peptide-MHC binding, purified MHC/competitive/radioactivity; filed as Kd, often an IC50 or EC50 that approximates it; bounds were set here for any values at or beyond the usual limits of such assays; conditions: source organism: Dengue virus 4 Philippines/H241/1956
endpoint_name: Kd (nM)
One number for each entry, in nM.

Reported Kd, sequence KTFDTEYPK : ____ 80

* * *

target: HLA-A*68:01; assay: IEDB peptide-MHC binding, purified MHC/competitive/radioactivity; filed as Kd, often an IC50 or EC50 that approximates it; bounds were set here for any values at or beyond the usual limits of such assays; settings: source organism: Vaccinia virus Copenhagen
pKd: −log10 of the molar value.
Class True: pKd at least 6. Class False: pKd below 6.

record_sequence=GFTATICLK target_of_assay=HLA-A*68:01 group_label=True

Exam item: decide whether the reported pKd for ILARRPTPK is at least 6. False

* * *

For each entry below, report its pKd value.
biological target: HLA-B*08:01; assay: IEDB peptide-MHC binding, purified MHC/direct/fluorescence; filed as Kd, often an IC50 or EC50 that approximates it; bounds were set here for any values at or beyond the usual limits of such assays; settings: source organism: Influenza A virus (A/Puerto Rico/8/34/Mount Sinai(H1N1))
Give bare numbers, as −log10 of the molar value.

record_sequence=FLKDVMESM recorded_measurement=6.80

Switching to the query record.
Given the entry FVRTLFQQM , report its measured pKd. 6.73
